Value source: PubChem BioAssay (EPA / NIEHS)

- Assay overview: CCTE_Shafer_MEA_acute_per_burst_spike_number_mean: CCTE's Neural Acute Assay for Average Number of Spikes Per Burst, Shafer Lab (AID 2284015);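 note: hits are decreases in mean spikes per burst versus baseline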
Calls of active or inactive are those of the source. Rule for the calls: active = hit-call score of the fitted dose curve at least 0.9, where 1 is the maximum; inactive = score below 0.9.
Give one outcome, nothing more. List: Yes = active, No = inactive

Would you please look over these solved cases?
[[record]]
compound = "CON(C)C(=O)Nc1ccc(Cl)c(Cl)c1"
classification = "No"

[[record]]
compound = "OC(c1ccc(Cl)cc1)(c1cncnc1)c1ccccc1Cl (stereo not given)"
classification = "Yes"

[[record]]
compound = "CCNc1nc(Cl)nc(NC(C)C)n1"
classification = "No"


Moving on to the next compound.
Query: recorded result category for CCCC1COC(Cn2cncn2)(c2ccc(Cl)cc2Cl)O1 (stereo not given) in this test Yes
